These entries and their values trace back to ChEMBL document CHEMBL5604062.

Below, each of the compounds is paired with its reported pIC50 value.
biological target: Nonstructural protein 3 (Zika virus, UniProt A0A024AXB9); test: Functional biochemical assay to identify treatments for viral infectious disease that targets Zika NS2B-NS3 protease. Utilizing a direct enzyme activity measurement method, reading the fluorescence intensity is used to characterize the relative potency of inhibitors as IC50.; design: species or system PRVABC59
Sequence (A0A024AXB9 whole entry): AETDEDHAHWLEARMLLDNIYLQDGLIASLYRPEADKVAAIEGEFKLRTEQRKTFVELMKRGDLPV
pIC50: −log10 of the molar value.

For orientation, consider the following solved cases.
CCCn1cc(-c2cc(Cl)cc(NC(=O)OCc3ccccc3)c2)c(C(=O)O)n1 < 4.00
CCCCCC(=O)N[C@H](C(=O)N1CCC(CN)CC1)c1ccc(OCc2ccccc2)cc1 < 4.00
CNC(=O)[C@H](Nc1ccc2c(c1)CNC2)c1cccc2[nH]ncc12 5.42
NCc1cccc(NC(=O)[C@@H](NC(=O)OCc2ccccc2)C2CCN(S(=O)(=O)C3CCCC3)CC2)c1 < 4.00
C=CC[C@H](Nc1cccc(C(=O)O)c1)c1cc(Cl)cc2[nH]ncc12 < 4.00
Cc1c(C(=O)Nc2ccc3c(c2)CNC3)cc(C2CC2)n1C 4.80

Look up pIC50 for this compound: Brc1cccc2cn(Cc3ncccn3)nc12 < 4.00

Need pIC50, item Cc1ccc(CNC(=O)c2cc(Cl)ccc2NS(=O)(=O)c2ccc(Oc3ccccc3Cl)cc2)s1 < 4.00

What value of measured pIC50 is listed for CCn1c(=O)c(N2C[C@H]3C[C@@]3(C(F)F)C2)nc2ccccc21 ? < 4.00
